Test system: MDA-MB-435 melanoma
Experiment: NCI-60 one-dose screen, 48 h (100 = growth as untreated, 0 = no growth, -100 = all killed)
Settings: 10 µM
Method: Growth inhibition of the MDA-MB-435 human Melanoma tumor cell line is measured as a screen for anti-cancer activity. Cells are grown in 96 well plates and exposed to the test compound for 48 hours. Compounds are tested at a single concentration, which is 10^-5 M for most compounds. The reported endpoint is percent growth (GI% or GIPRCNT), where numbers from 0 - 100% represent growth inhibition, and numbers from -100% - 0 represent cell death. […]
About 83,000 compounds went through this panel and 20% of them were active in at least one assay; those are over-represented in the sample as a whole.
experimental endpoint: growth (%)
Numbers only, in %.

- O=C(N/N=C/c1ccccc1O)C(O)(c1ccccc1)c1ccccc1: 65.2

Answer for every listed entry: what is its growth? The entries follow.
1. CC12O[C@H](C[C@@H](O)[C@H]1O)n1c3ccccc3c3c4c(c5c6ccccc6n2c5c31)C(=O)N(CCCN)C4=O
2. COc1cc(-c2cc(/C=C3\C(=O)Nc4ccc(Cl)cc43)[nH]n2)cc(OC)c1OC
3. Fc1cc(C(F)(F)F)ccc1-c1cncnc1NC1CCCCCC1

## Result
32.5
10.3
104

Please give growth for each item listed below.
1. Nc1c(C(=O)Nc2cccc3ccccc23)sc2nc3c(cc12)C(=O)CCC3
2. NC1(C(=O)O)CSSC1
3. CC(C)N(CCNc1nc(C(Cl)(Cl)Cl)nc2cc(Cl)ccc12)C(C)C
4. COc1ccc(-c2nc3ncccn3c2-c2nnc(-c3ccc(F)cc3)o2)cc1

## Result
-37.3
89.4
-47.2
107

Hi! Can you tell me growth for each of these molecules?
1. N#CCCN(NC(=O)OCc1ccccc1)C(=O)OCc1ccccc1
2. N=c1c2c(-c3ccccc3)c(-c3ccccc3)n(Cc3ccccc3)c2ncn1CCCO

## Result
1: 105; 2: 34.2
